Every entry's value here was drawn from ChEMBL document CHEMBL1201862.

Measured GI50 of individual entries
# Tested on: KM12
# experimentDescription: NCI tumour cell line growth inhibition, 48 h
The source made the active and inactive calls. Rule as the data show it: active = GI50 up to about 1.1 µM and inactive = higher.

N#Cc1ccccc1NC(=O)C(=O)C(C(=O)c1ccccc1F)C1OC(=O)c2ccccc21 (stereo not drawn) | 41.2 µM (inactive)

// sample N#Cc1c(-c2ccccc2)c(C#N)c(=S)n(C2OC(CO)C(O)C(O)C2O)c1N (stereo not drawn) , its GI50 was > 100 µM (inactive)

// sample CC1(C)/C(=N\O)C2(C#N)CCC1C2 (stereo not drawn) , its GI50 was > 100 µM (inactive)

* * *

# System: RXF 393
# experimentDescription: NCI tumour cell line growth inhibition, 48 h
Activity calls are given as the source filed them. Rule as the data show it: active = GI50 up to about 1.1 µM and inactive = higher.
Measured GI50 of individual entries

These solved cases illustrate the format of a correct answer.
COc1ccc(-c2c3ccccc3c(-c3ccc(OCCBr)cc3)c3ccccc23)cc1 | > 100 µM (inactive)
COc1c(C)c(OCC=C(C)C)cc(CO)c1CO | 10.7 µM (inactive)
Brc1ccccc1-c1ncc(-c2ccccc2)o1 | 21.7 µM (inactive)

// sample CC1=CC[C@H](C)C(C)(C)C1/C=C/C(C)=C/CC[C@@]1(CO)[C@H](CCCO)/C(=C(/C)C=O)CC[C@]1(C)O (some centres undefined) , its GI50 was 14.6 µM (inactive)

// sample CC(NC1=NCCO1)c1ccsc1 (centres undefined) , its GI50 was 33.5 µM (inactive)

// sample Cc1ccc2c(c1)NC(=O)CCSSCCC(=O)N2 , its GI50 was > 100 µM (inactive)

// sample CC1(CCCO)CCCCCC(C)(CCCO)C1=O (centres undefined) , its GI50 was > 100 µM (inactive)

// sample O=C(O)C(=Cc1ccc(-c2ccccc2)cc1)C(=O)O , its GI50 was 4.02 µM (inactive)

// sample CNC(=O)C(C)C1C(=O)/C(=C(O)/C=C\C(C)=C\C(C)C2OC3(C)OC(C=CC34CO4)C2C)C(=O)N1C1CCC(O)C(C)O1 (centres undefined) , its GI50 was > 100 µM (inactive)

* * *

# Tested on: OVCAR-5
# experimentDescription: NCI tumour cell line growth inhibition, 48 h
Calls of active or inactive are those of the source. Rule as the data show it: active = GI50 up to about 1.1 µM and inactive = higher.
assayEndpoint: GI50

These solved cases illustrate the format of a correct answer.
CCOC(=O)C(C(=O)OCC)c1cc(-c2cc3ccccc3o2)oc(=O)c1C#N | 18.5 µM (inactive)
N=C1C=CC(=C(c2ccc(N)cc2)c2ccc(N)cc2)C=C1 | 9.27 µM (inactive)
COc1ccc2c(c1)CC1=C(O2)c2ccc(OC)cc2OC1 | 49.4 µM (inactive)
CNC/C(Cl)=N/S(=O)(=O)c1ccc(C)cc1 | 21 µM (inactive)
Cc1cc2nc(-c3cc(C(C)(C)C)c(O)c(C(C)(C)C)c3)[nH]c2cc1C | > 100 µM (inactive)

// sample O=C(O)C1=C(C(=O)Nc2ccccc2)C2C=CC1C2 (configuration not stated) , its GI50 was > 100 µM (inactive)

// sample Cc1nc(=O)n2c(C)n[nH]c2c1C(=O)Nc1cc(Cl)cc(Cl)c1 , its GI50 was 65.3 µM (inactive)

* * *

# Tested on: SK-MEL-28
# experimentDescription: NCI tumour cell line growth inhibition, 48 h
Active and inactive are the calls of the source. Cut-off read from the data, not from the text of the source: active = GI50 up to about 1.1 µM and inactive = higher.
Measured GI50 of individual entries

These solved cases illustrate the format of a correct answer.
CC1Nc2ccccc2NC1C=C(C#N)C#N (stereo unspecified) | 16.6 µM (inactive)
CCOC(=O)C(NC(=O)CC(C)C)(N1CCN(c2cc3c(cc2F)c(=O)c(C(=O)O)cn3C2CC2)CC1)C(F)(F)F (stereo unspecified) | 20.9 µM (inactive)
CCOC(=O)C1=COC(C)(CCc2ccccc2)CC1=O (stereo unspecified) | > 100 µM (inactive)
Nc1nc(N)c(N=O)c(Nc2ccc(I)cc2)n1 | 14 µM (inactive)
C/C(=N\NC(=N)N)C(CN(CC(C)C)CC(C)C)C(=O)Nc1ccc(C)cc1C (stereo unspecified) | > 100 µM (inactive)

// sample NNC(=O)C(=O)N/N=C(\CCC(=O)Nc1ccc(Cl)cc1)Cc1nc2ccccc2s1 , its GI50 was 71.8 µM (inactive)

// sample CC1(C)/C(=N\O)C2(C#N)CCC1C2 (stereo unspecified) , its GI50 was > 100 µM (inactive)

// sample CC1C2CC(CC23OCC(CCl)O3)C1(C)C (stereo unspecified) , its GI50 was > 100 µM (inactive)

// sample CC(=O)c1sc2c(c1OC(=O)c1ccco1)c(=O)n(-c1ccccc1)c(=S)n2-c1ccccc1 , its GI50 was 23.8 µM (inactive)

// sample Cn1c2ccccc2n2c3ncccc3c(=O)cc12 , its GI50 was > 100 µM (inactive)

// sample Cc1ccc2nc3c(C)cc(=O)cc-3sc2c1 , its GI50 was 25.9 µM (inactive)
